system: hTERT-HMEC; assay: percentage of EdU-negative (G0-arrested) nuclei per well, 72 h; higher = more G0 arrest; conditions: protein concentration 0.225 µM; reference: sequence is the full UniProt precursor, the tested protein was the secreted form or ectodomain
measurement-kind: percentage of EdU-negative (%)
One number for each entry, in %.

MRLPRRAALGLLPLLLLLPPAPEAAKKPTPCHRCRGLVDKFNQGMVDTAKKNFGGGNTAWEEKTLSKYESSEIRLLEILEGLCESSDFECNQMLEAQEEHLEAWWLQLKSEYPDLFEWFCVKTLKVCCSPGTYGPDCLACQGGSQRPCSGNGHCSGDGSRQGDGSCRCHMGYQGPLCTDCMDGYFSSLRNETHSICTACDESCKTCSGLTNRDCGECEVGWVLDEGACVDVDECAAEPPPCSAAQFCKNANGSYTCEECDSSCVGCTGEGPGNCKECISGYAREHGQCADVDECSLAEKTCVRKNENCYNTPGSYVCVCPDGFEETEDACVPPAEAEATEGESPTQLPSREDL [Q6UXH1]    6.12

Next item in the queue.
Task item: // fetch percentage of EdU-negative given entry MLPPMALPSVSWMLLSCLILLCQVQGEETQKELPSPRISCPKGSKAYGSPCYALFLSPKSWMDADLACQKRPSGKLVSVLSGAEGSFVSSLVRSISNSYSYIWIGLHDPTQGSEPDGDGWEWSSTDVMNYFAWEKNPSTILNPGHCGSLSRSTGFLKWKDYNCDAKLPYVCKFKD [Q6UW15]
Reply: 5.21

---

system: hTERT-HMEC; assay: percentage of EdU-negative (G0-arrested) nuclei per well, 72 h; higher = more G0 arrest; details: protein concentration 0.225 µM; reference: sequence is the full UniProt precursor, the tested protein was the secreted form or ectodomain
measurement-kind: percentage of EdU-negative (%)
Answers are plain numbers, in %.

Take a look at these entries with their results.
MKAWGTVVVTLATLMVVTVDAKIYERCELAARLERAGLNGYKGYGVGDWLCMAHYESGFDTAFVDHNPDGSSEYGIFQLNSAWWCDNGITPTKNLCHMDCHDLLNRHILDDIRCAKQIVSSQNGLSAWTSWRLHCSGHDLSEWLKGCDMHVKIDPKIHP [Q96QH8]    7.91
MSRGLQLLLLSCAYSLAPATPEVKVACSEDVDLPCTAPWDPQVPYTVSWVKLLEGGEERMETPQEDHLRGQHYHQKGQNGSFDAPNERPYSLKIRNTTSCNSGTYRCTLQDPDGQRNLSGKVILRVTGCPAQRKEETFKKYRAEIVLLLALVIFYLTLIIFTCKFARLQSIFPDFSKAGMERAFLPVTSPNKHLGLVTPHKTELV    8.57

Task item: Specify measured percentage of EdU-negative for MGSRGQGLLLAYCLLLAFASGLVLSRVPHVQGEQQEWEGTEELPSPPDHAERAEEQHEKYRPSQDQGLPASRCLRCCDPGTSMYPATAVPQINITILKGEKGDRGDRGLQGKYGKTGSAGARGHTGPKGQKGSMGAPGERCKSHYAAFSVGRKKPMHSNHYYQTVIFDTEFVNLYDHFNMFTGKFYCYVPGLYFFSLNVHTWNQKETYLHIMKNEEEVVILFAQVGDRSIMQSQSLMLELREQDQVWVRLYKGERENAIFSEELDTYITFSGYLVKHATEP [Q9BXJ1] .
Reply: 4.49

---

test system: hTERT-HMEC; experiment: percentage of EdU-negative (G0-arrested) nuclei per well, 72 h; higher = more G0 arrest; details: protein concentration 0.0225 µM; reference: sequence is the full UniProt precursor, the tested protein was the secreted form or ectodomain
measurement-kind: percentage of EdU-negative (%)
Answers are plain numbers, in %.

Example entries begin here.
MAKMNLSSYILILTFSLFSQGILLSASKSIRNLDDDMVFNTFRLGKGFQKEDTAEKSVIAPSLEQYKNDESSFMNEEENKVSKNTGSKHNFLNHGLPLNLAIKPYLALKGSVAFPAENGVQNTESTQEKREIGDEENSAKFPIGRRDFDMLRCMLGRVYRPCWQV    5.49
MFSTKALLLAGLISTALAGPWANICAGKSSNEIRTCDRHGCGQYSAQRSQRPHQGVDILCSAGSTVYAPFTGMIVGQEKPYQNKNAINNGVRISGRGFCVKMFYIKPIKYKGPIKKGEKLGTLLPLQKVYPGIQSHVHIENCDSSDPTAYL    4.82
MKLPLLLALLFGAVSALHLRSETSTFETPLGAKTLPEDEETPEQEMEETPCRELEEEEEWGSGSEDASKKDGAVESISVPDMVDKNLTCPEEEDTVKVVGIPGCQTCRYLLVRSLQTFSQAWFTCRRCYRGNLVSIHNFNINYRIQCSVSALNQGQVWIGGRITGSGRCRRFQWVDGSRWNFAYWAAHQPWSRGGHCVALCTRGGHWRRAHCLRRLPFICSY    5.28

For every record below, what is its percentage of EdU-negative?
1. MSRREGSLEDPQTDSSVSLLPHLEAKIRQTHSLAHLLTKYAEQLLQEYVQLQGDPFGLPSFSPPRLPVAGLSAPAPSHAGLPVHERLRLDAAALAALPPLLDAVCRRQAELNPRAPRLLRRLEDAARQARALGAAVEALLAALGAANRGPRAEPPAATASAASATGVFPAKVLGLRVCGLYREWLSRTEGDLGQLLPGGSA
2. MLWRQLIYWQLLALFFLPFCLCQDEYMESPQTGGLPPDCSKCCHGDYSFRGYQGPPGPPGPPGIPGNHGNNGNNGATGHEGAKGEKGDKGDLGPRGERGQHGPKGEKGYPGIPPELQIAFMASLATHFSNQNSGIIFSSVETNIGNFFDVMTGRFGAPVSGVYFFTFSMMKHEDVEEVYVYLMHNGNTVFSMYSYEMKGKSDTSSNHAVLKLAKGDEVWLRMGNGALHGDHQRFSTFAGFLLFETK [Q9BXJ4]
3. MATHHTLWMGLALLGVLGDLQAAPEAQVSVQPNFQQDKFLGRWFSAGLASNSSWLREKKAALSMCKSVVAPATDGGLNLTSTFLRKNQCETRTMLLQPAGSLGSYSYRSPHWGSTYSVSVVETDYDQYALLYSQGSKGPGEDFRMATLYSRTQTPRAELKEKFTAFCKAQGFTEDTIVFLPQTDKCMTEQ
4. MAPARAGCCPLLLLLLGLWVAEVLVRAKPKDMTSSQWFKTQHVQPSPQACNSAMSIINKYTERCKDLNTFLHEPFSSVAITCQTPNIACKNSCKNCHQSHGPMSLTMGELTSGKYPNCRYKEKHLNTPYIVACDPPQQGDPGYPLVPVHLDKVV [Q8TDE3]

Reply:
4.52
5.75
4.95
5.33

---

test system: hTERT-HMEC; assay: percentage of EdU-negative (G0-arrested) nuclei per well, 72 h; higher = more G0 arrest; details: protein concentration 0.225 µM; reference: sequence is the full UniProt precursor, the tested protein was the secreted form or ectodomain;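 further: secreted proteins added to cultured cells, EdU pulse at the end, nuclei found by Hoechst imaging, EdU status from nuclear versus surrounding ring intensity ratio, PBS as neutral control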
measurement-kind: percentage of EdU-negative (%)
Give bare numbers, in %.

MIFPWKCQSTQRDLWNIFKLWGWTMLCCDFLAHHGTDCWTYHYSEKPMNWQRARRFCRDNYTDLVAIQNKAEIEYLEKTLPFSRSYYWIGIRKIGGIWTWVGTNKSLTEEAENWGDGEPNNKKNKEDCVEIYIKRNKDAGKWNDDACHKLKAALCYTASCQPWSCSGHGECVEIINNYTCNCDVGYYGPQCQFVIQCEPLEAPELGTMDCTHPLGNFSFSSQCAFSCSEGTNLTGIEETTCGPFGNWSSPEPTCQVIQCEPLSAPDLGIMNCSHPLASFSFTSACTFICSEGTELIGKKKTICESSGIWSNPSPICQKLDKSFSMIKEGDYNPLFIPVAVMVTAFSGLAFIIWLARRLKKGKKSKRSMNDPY    11.1
MAGGRHRRVVGTLHLLLLVAALPWASRGVSPSASAWPEEKNYHQPAILNSSALRQIAEGTSISEMWQNDLQPLLIERYPGSPGSYAARQHIMQRIQRLQADWVLEIDTFLSQTPYGYRSFSNIISTLNPTAKRHLVLACHYDSKYFSHWNNRVFVGATDSAVPCAMMLELARALDKKLLSLKTVSDSKPDLSLQLIFFDGEEAFLHWSPQDSLYGSRHLAAKMASTPHPPGARGTSQLHGMDLLVLLDLIGAPNPTFPNFFPNSARWFERLQAIEHELHELGLLKDHSLEGRYFQNYSYGGVIQDDHIPFLRRGVPVLHLIPSPFPEVWHTMDDNEENLDESTIDNLNKILQVFVLEYLHL    4.97
MKGICSDAILVLATSMWMAFAIDFPLPMASERGQLDKTIVECLKNVNKCWFLSYIKPSEPICGSDQVTYSSDCHLCSKILFEGLNITKLYDGQCENS [P0C7L1]    7.03
MKGSIFTLFLFSVLFAISEVRSKESVRLCGLEYIRTVIYICASSRWRRHQEGIPQAQQAETGNSFQLPHKREFSEENPAQNLPKVDASGEDRLWGGQMPTEELWKSKKHSVMSRQDLQTLCCTDGCSMTDLSALC [Q9Y5Q6]    4.97
MPRRSLHAAAVLLLVILKEQPSSPAPVNGSKWTYFGPDGENSWSKKYPSCGGLLQSPIDLHSDILQYDASLTPLEFQGYNLSANKQFLLTNNGHSVKLNLPSDMHIQGLQSRYSATQLHLHWGNPNDPHGSEHTVSGQHFAAELHIVHYNSDLYPDASTASNKSEGLAVLAVLIEMGSFNPSYDKIFSHLQHVKYKGQEAFVPGFNIEELLPERTAEYYRYRGSLTTPPCNPTVLWTVFRNPVQISQEQLLALETALYCTHMDDPSPREMINNFRQVQKFDERLVYTSFSQVQVCTAAGLSLGIILSLALAGILGICIVVVVSIWLFRRKSIKKGDNKGVIYKPATKMETEAHA    5.5

Record percentage of EdU-negative for all entries; do not skip any.
1. MAPISLSWLLRLATFCHLTVLLAGQHHGVTKCNITCSKMTSKIPVALLIHYQQNQASCGKRAIILETRQHRLFCADPKEQWVKDAMQHLDRQAAALTRNGGTFEKQIGEVKPRTTPAAGGMDESVVLEPEATGESSSLEPTPSSQEAQRALGTSPELPTGVTGSSGTRLPPTPKAQDGGPVGTELFRVPPVSTAATWQSSAPHQPGPSLWAEAKTSEAPSTQDPSTQASTASSPAPEENAPSEGQRVWGQGQSPRPENSLEREEMGPVPAHTDAFQDWGPGSMAHVSVVPVSSEGTPSREPVASGSWTPKAEEPIHATMDPQRLGVLITPVPDAQAATRRQAVGLLAFLGLLFCLGVAMFTYQSLQGCPRKMAGEMAEGLRYIPRSCGSNSYVLVPV
2. MRPLAGGLLKVVFVVFASLCAWYSGYLLAELIPDAPLSSAAYSIRSIGERPVLKAPVPKRQKCDHWTPCPSDTYAYRLLSGGGRSKYAKICFEDNLLMGEQLGNVARGINIAIVNYVTGNVTATRCFDMYEGDNSGPMTKFIQSAAPKSLLFMVTYDDGSTRLNNDAKNAIEALGSKEIRNMKFRSSWVFIAAKGLELPSEIQREKINHSDAKNNRYSGWPAEIQIEGCIPKERS
3. MAILMLSLQLILLLIPSISHEAHKTSLSSWKHDQDWANVSNMTFSNGKLRVKGIYYRNADICSRHRVTSAGLTLQDLQLWCNLRSVARGQIPSTL [Q6UY13]
4. MVMRPLWSLLLWEALLPITVTGAQVLSKVGGSVLLVAARPPGFQVREAIWRSLWPSEELLATFFRGSLETLYHSRFLGRAQLHSNLSLELGPLESGDSGNFSVLMVDTRGQPWTQTLQLKVYDAVPRPVVQVFIAVERDAQPSKTCQVFLSCWAPNISEITYSWRRETTMDFGMEPHSLFTDGQVLSISLGPGDRDVAYSCIVSNPVSWDLATVTPWDSCHHEAAPGKASYKDVLLVVVPVSLLLMLVTLFSAWHWCPCSGKKKKDVHADRVGPETENPLVQDLP [Q9P0V8]
5. MPEEGSGCSVRRRPYGCVLRAALVPLVAGLVICLVVCIQRFAQAQQQLPLESLGWDVAELQLNHTGPQQDPRLYWQGGPALGRSFLHGPELDKGQLRIHRDGIYMVHIQVTLAICSSTTASRHHPTTLAVGICSPASRSISLLRLSFHQGCTIASQRLTPLARGDTLCTNLTGTLLPSRNTDETFFGVQWVRP
6. MGHRFLRGLLTLLLPPPPLYTRHRMLGPESVPPPKRSRSKLMAPPRIGTHNGTFHCDEALACALLRLLPEYRDAEIVRTRDPEKLASCDIVVDVGGEYDPRRHRYDHHQRSFTETMSSLSPGKPWQTKLSSAGLIYLHFGHKLLAQLLGTSEEDSMVGTLYDKMYENFVEEVDAVDNGISQWAEGEPRYALTTTLSARVARLNPTWNHPDQDTEAGFKRAMDLVQEEFLQRLDFYQHSWLPARALVEEALAQRFQVDPSGEIVELAKGACPWKEHLYHLESGLSPPVAIFFVIYTDQAGQWRIQCVPKEPHSFQSRLPLPEPWRGLRDEALDQVSGIPGCIFVHASGFIGGHRTREGALSMARATLAQRSYLPQIS [Q9HB07]

Reply:
1. 5.92
2. 6.31
3. 5.92
4. 4
5. 5.11
6. 11
